B1: Caulobacter ParB omega fusion; a variant is named by its letters at X, in order, B8GW30 (parent)
chain: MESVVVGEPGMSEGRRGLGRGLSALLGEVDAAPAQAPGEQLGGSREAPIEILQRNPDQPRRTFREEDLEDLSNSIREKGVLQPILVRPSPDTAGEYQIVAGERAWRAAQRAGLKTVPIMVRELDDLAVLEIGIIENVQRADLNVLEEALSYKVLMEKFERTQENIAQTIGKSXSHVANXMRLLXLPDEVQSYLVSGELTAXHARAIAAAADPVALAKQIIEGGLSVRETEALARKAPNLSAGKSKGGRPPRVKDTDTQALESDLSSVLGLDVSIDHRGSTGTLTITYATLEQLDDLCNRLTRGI

variants of: B1; experiment: one-hybrid fitness for binding parS DNA (scaled: cognate 1, non-cognate 0); higher = stronger binding; conditions: with parS DNA site
In all, about 81,000 sequences were measured (“one-hybrid fitness for binding parS DNA”: median about -0.17, highest 2% from about 0.51 on). The entries come from a sample that favours the highest values as a whole.
Readout Label: one-hybrid fitness for binding parS DNA
Answers are plain numbers.

Variant Annotation	one-hybrid fitness for binding parS DNA
RCPG	0.81
RRAS	0.652

For the 3 variants below, give their one-hybrid fitness for binding parS DNA values.
1. RFNK
2. RRAN
3. RCAN

Result string:
1: 0.203; 2: 0.583; 3: 0.477
